molecular target: Receptor tyrosine-protein kinase erbB-2 (Homo sapiens) (UniProt P04626); settings: at 0.1 µM;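 also: each value is the mean percent inhibition of ERBB2 over replicate measurements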
Sequence (P04626 whole entry): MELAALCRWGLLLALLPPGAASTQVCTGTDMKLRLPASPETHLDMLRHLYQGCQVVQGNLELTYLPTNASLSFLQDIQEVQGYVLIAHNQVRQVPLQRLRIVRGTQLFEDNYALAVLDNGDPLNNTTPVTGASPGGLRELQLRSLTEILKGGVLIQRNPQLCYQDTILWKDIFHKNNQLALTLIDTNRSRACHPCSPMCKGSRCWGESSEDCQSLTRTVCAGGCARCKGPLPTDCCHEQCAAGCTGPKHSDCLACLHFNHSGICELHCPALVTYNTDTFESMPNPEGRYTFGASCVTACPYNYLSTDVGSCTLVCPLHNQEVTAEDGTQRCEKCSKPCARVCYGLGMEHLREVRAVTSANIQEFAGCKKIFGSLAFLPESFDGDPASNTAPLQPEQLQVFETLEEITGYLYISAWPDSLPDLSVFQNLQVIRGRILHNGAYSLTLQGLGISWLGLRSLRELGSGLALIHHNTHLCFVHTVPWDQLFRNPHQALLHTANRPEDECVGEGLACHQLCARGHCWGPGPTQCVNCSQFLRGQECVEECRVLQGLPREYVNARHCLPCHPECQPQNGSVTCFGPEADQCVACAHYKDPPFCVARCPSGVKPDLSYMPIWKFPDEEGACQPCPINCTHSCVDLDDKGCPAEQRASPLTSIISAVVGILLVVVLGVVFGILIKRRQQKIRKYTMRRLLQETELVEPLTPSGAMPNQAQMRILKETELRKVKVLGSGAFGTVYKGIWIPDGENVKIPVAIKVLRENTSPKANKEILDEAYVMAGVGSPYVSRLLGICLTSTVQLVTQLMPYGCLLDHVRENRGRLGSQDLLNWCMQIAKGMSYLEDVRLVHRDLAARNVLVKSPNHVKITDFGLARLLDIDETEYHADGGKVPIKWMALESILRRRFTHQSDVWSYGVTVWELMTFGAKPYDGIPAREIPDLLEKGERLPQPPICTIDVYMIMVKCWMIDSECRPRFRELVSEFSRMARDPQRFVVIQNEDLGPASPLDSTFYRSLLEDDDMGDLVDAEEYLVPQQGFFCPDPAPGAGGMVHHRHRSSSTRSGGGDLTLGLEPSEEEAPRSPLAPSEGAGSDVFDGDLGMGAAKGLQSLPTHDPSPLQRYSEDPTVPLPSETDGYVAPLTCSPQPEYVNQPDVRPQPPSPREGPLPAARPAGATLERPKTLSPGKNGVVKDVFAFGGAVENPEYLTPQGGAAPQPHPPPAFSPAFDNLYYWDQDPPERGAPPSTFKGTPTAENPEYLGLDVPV
inhibition by entry:
Write the number in % without appending the unit.

Worked examples follow.
INSERT INTO measurements (smiles_input, assay_target, quantitative_result) VALUES
  ('O=C1Nc2ccccc2/C1=C/Nc1ccc2[nH]c(=O)[nH]c2c1', 'Receptor tyrosine-protein kinase erbB-2 (Homo sapiens) (UniProt P04626)', 3.93),
  ('N#Cc1cccc(Nc2nccc(-c3cnn4ncccc34)n2)c1', 'Receptor tyrosine-protein kinase erbB-2 (Homo sapiens) (UniProt P04626)', 1.23);

Suppose we examine the compound NS(=O)(=O)c1ccc(N/N=C2\C(=O)Nc3ccc(Cl)cc32)cc1 ; what inhibition value has been reported? 2.29

Quick one: inhibition for CS(=O)(=O)CCNCc1nc(-c2ccc3ncnc(Nc4ccc(OCc5cccc(C(F)(F)F)c5)cc4)c3c2)cs1 ? 4.71

I am curious: what inhibition value has been reported for Cc1ccc(C(=O)NC2CC2)cc1-c1ccc2[nH]ncc2c1 ? -5.76

----------
target: Ribosomal protein S6 kinase alpha-3 (Homo sapiens) (UniProt P51812); settings: at 1 µM
Sequence (P51812 whole entry): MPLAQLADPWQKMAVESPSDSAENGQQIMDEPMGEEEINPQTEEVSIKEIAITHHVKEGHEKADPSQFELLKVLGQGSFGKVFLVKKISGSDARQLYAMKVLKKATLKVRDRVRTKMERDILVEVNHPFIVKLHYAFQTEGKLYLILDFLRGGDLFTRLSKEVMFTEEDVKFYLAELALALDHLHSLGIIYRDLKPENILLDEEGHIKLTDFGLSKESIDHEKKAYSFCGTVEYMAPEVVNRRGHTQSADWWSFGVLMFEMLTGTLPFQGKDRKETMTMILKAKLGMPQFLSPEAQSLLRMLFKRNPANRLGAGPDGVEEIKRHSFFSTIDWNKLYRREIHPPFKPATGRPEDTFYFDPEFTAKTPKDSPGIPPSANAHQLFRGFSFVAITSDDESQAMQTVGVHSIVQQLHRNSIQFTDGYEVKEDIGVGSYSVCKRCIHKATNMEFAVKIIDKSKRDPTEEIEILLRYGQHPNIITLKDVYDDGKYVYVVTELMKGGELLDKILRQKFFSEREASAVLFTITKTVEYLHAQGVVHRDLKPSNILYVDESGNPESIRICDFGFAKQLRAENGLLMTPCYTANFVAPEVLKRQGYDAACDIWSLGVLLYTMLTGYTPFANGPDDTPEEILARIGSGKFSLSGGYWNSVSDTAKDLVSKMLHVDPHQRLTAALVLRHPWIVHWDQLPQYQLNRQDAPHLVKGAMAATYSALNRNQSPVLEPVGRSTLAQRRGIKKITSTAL
Description: GSK_PKIS: RSK2 mean inhibition at 1 uM [Nanosyn]
Documented inhibition across a set of molecules
Express it in %; write the number only.

INSERT INTO assay_data (smiles_input, quantitative_result) VALUES
  ('CCS(=O)(=O)c1ccc(OC)c(Nc2ncc(-c3cccc(OC)c3)o2)c1', 0.81),
  ('NS(=O)(=O)c1cccc(Nc2cc(-c3ccc(F)cc3)n[nH]2)c1', 5.61),
  ('FC(F)(F)c1ccc(-c2nn3ncccc3c2-c2ccnc(Nc3ccc4c(c3)OCCO4)n2)cc1', 5.4),
  ('NS(=O)(=O)c1ccc(NC=C2C(=O)Nc3ccc4ncsc4c32)cc1', 57.1);

Find the measured inhibition: item COC(=O)Nc1nc2cc(Oc3ccc(NC(=O)Nc4cccc(Br)c4)cc3)ccc2[nH]1 , target or system Ribosomal protein S6 kinase alpha-3 (Homo sapiens) (UniProt P51812). 0.56

Request - read-out inhibition | tested on Ribosomal protein S6 kinase alpha-3 (Homo sapiens) (UniProt P51812) | molecule COc1cc(/C=N/Nc2ncnc3c2cnn3C(C)C)ccc1O 1.27

----------
Recorded inhibition values for a group of compounds are listed next.
target: Casein kinase I isoform gamma-3 (Homo sapiens) (UniProt Q9Y6M4); conditions: at 1 µM;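 also: mean inhibition of CK1-g3, GSK PKIS screen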
Sequence (Q9Y6M4 whole entry, looked up, canonical isoform): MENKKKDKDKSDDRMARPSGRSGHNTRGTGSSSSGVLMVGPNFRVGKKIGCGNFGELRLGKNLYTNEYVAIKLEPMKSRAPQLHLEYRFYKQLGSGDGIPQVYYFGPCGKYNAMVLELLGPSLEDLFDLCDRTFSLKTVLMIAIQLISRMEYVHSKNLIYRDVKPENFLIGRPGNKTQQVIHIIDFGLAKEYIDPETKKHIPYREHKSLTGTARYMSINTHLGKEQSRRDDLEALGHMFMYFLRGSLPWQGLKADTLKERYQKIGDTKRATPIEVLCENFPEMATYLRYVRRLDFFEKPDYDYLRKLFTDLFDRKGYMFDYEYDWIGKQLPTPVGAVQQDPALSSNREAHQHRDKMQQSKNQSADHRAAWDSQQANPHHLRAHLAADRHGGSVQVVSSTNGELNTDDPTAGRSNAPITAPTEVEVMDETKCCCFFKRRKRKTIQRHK
The answer is to be given in %; state only the numeric part.

INSERT INTO results (compound, quantitative_result) VALUES
  ('COc1cccc(-n2ncc3c(N/N=C/c4ccc(S(C)(=O)=O)cc4)ncnc32)c1', -2.43),
  ('C[C@@H](Oc1cc(-n2cnc3ccc(OCC4CCN(C)CC4)cc32)sc1C(N)=O)c1ccccc1C(F)(F)F', -3.59),
  ('NC(=O)c1cccc(Nc2nccc(Nc3cccc(F)c3)n2)c1', 0.09);

Param item = COC(=O)c1cncc(/C=C/c2c(C)cc(O)cc2C)c1 ; retrieve measured inhibition. 3.39

Endpoint output: inhibition of Oc1cccc(-c2nc(-c3ccccc3)[nH]c2-c2ccncc2)c1 . Value? 2.68

Any idea what inhibition was measured for Cc1nc(-c2ccccc2)n2nc(NCCCN3CCOCC3)ncc12 ? 1.78

I have this compound here, Nc1nccc(-c2c(-c3ccc(F)cc3)ncn2CCCN2CCOCC2)n1 , and I need its recorded inhibition. 6.54

What does the data say about its inhibition? Entry: COc1cccc(-n2ncc3c(N/N=C/c4ccc(C)cc4)ncnc32)c1 8.48

I'd like to know its inhibition. The compound in question is Nc1nccc(-c2c(-c3ccc(F)cc3)nn3cc(C(F)(F)F)ccc23)n1 1.7

So what does the record say about inhibition for CCCN1CCCC(c2ccc(Nc3nc(Nc4cc(F)ccc4C(N)=O)c4cc[nH]c4n3)c(OC)c2)C1 (stereo not given) ? 83.5

----------
molecular target: Sphingosine kinase 2 (Homo sapiens) (UniProt Q9NRA0); conditions: at 1 µM
Sequence (Q9NRA0 whole entry): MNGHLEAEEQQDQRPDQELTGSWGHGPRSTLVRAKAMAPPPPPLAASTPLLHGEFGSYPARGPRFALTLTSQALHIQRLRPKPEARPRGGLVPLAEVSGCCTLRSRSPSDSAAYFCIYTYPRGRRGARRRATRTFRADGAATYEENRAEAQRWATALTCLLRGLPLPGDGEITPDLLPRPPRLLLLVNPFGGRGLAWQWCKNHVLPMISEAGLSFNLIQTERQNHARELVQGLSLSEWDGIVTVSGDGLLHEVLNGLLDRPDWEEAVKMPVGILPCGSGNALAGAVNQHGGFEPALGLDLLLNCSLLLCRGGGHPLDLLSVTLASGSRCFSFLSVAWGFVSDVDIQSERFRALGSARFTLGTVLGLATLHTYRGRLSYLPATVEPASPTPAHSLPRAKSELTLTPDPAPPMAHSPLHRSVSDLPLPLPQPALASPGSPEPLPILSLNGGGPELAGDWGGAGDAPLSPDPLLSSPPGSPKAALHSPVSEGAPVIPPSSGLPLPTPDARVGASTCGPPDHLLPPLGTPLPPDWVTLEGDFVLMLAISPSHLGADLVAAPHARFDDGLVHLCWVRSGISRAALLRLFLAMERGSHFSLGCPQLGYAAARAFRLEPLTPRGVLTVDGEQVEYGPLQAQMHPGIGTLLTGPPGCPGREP
Description: GSK_PKIS: SPHK2 mean inhibition at 1 uM [Nanosyn]
Entries and their measured inhibition follow.
The answer is to be given in %; state only the numeric part.

INSERT INTO assay_data (smiles_input, unit_label, quantitative_result) VALUES
  ('O=C(Nc1ccc(Oc2ccc3[nH]c(NC(=O)c4ccco4)nc3c2)cc1)Nc1cc(C(F)(F)F)ccc1F', '%', -0.32),
  ('Cc1ccc2c(-c3ccnc(Nc4cccc(C(F)(F)F)c4)n3)c(-c3ccccc3)nn2n1', '%', 0),
  ('NS(=O)(=O)c1ccc(-c2cc3ccncc3cc2OCc2ccccc2)cc1', '%', 1);

Param item = CN1CCN(C(=O)c2ccc(NC(=O)Nc3ccc(N(C)c4ccnc(Nc5ccc(CS(C)(=O)=O)cc5)n4)cc3)cc2)CC1 ; retrieve measured inhibition. -0.74

I would be grateful if you could share the reported inhibition for NS(=O)(=O)c1cccc(-c2cc3ccncc3cc2OCc2ccccc2)c1 . 0.96

----------
molecular target: Tyrosine-protein kinase SYK (Homo sapiens); details: at 0.1 µM;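 also: reported percentages are mean inhibition values for SYK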
compounds and their reported inhibition
A bare number is not enough; add the unit after it.

INSERT INTO assay_data (smiles_input, result) VALUES
  ('CS(=O)(=O)CCNCc1nc(-c2ccc3ncnc(Nc4ccc(OCc5cccc(C(F)(F)F)c5)cc4)c3c2)cs1', '0.35%');

Reported inhibition, compound Cc1ccc2c(-c3ccnc(Nc4cccc(C(F)(F)F)c4)n3)c(-c3ccccc3)nn2n1 : ____ 0.45%

Sample COc1cc(/C=N/Nc2ncnc3c2cnn3C(C)C)ccc1O — what was its inhibition? -1.05%

Which inhibition value is on record for OCc1ccc(-c2nc(-c3ccccn3)c(-c3ccc4c(c3)OCO4)[nH]2)cc1 ? -7.53%

Fill in the blank: the reported inhibition of COc1cccc(-n2ncc3c(N/N=C/c4ccc(C)cc4)ncnc32)c1 is ____. 0.52%

Quick one: inhibition of Oc1cccc(-c2nc(-c3ccccc3)[nH]c2-c2ccncc2)c1 ? -2.15%

Any idea what inhibition was measured for COc1cc(Nc2nccc(-c3cnn4ncccc34)n2)cc(OC)c1 ? -0.4%

Which inhibition is listed for Nc1nccc(-c2c(-c3ccc(F)cc3)ncn2CCCN2CCOCC2)n1 ? -6.28%

I would be grateful if you could share the reported inhibition for O=C(Nc1ccc(Oc2ccc3[nH]c(NC(=O)c4ccco4)nc3c2)cc1)Nc1cc(C(F)(F)F)ccc1F . 1.01%

----------
Entries and their inhibition values follow.
molecular target: Mitogen-activated protein kinase 12 (Homo sapiens) (UniProt P53778); settings: at 0.1 µM
Sequence (P53778 whole entry): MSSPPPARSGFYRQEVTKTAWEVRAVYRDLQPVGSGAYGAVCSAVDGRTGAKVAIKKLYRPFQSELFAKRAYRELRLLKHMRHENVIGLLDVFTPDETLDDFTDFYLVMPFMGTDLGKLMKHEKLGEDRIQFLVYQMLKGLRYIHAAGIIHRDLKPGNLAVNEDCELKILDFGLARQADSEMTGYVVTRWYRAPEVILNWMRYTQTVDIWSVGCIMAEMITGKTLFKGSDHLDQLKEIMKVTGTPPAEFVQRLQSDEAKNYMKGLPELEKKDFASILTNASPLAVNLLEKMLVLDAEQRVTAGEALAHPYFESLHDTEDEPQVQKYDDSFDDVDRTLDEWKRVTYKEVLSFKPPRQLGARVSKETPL
Description: GSK_PKIS: P38gamma mean inhibition at 0.1 uM [Nanosyn]
Answer with a number only, understood to be in %.

INSERT INTO measurements (smiles_input, readout_label, quantitative_result) VALUES
  ('COc1cc2ncn(-c3cc(OCc4ccccc4S(C)(=O)=O)c(C#N)s3)c2cc1OC', 'inhibition', 0.36),
  ('NC(=O)c1sc(-n2cnc3ccccc32)cc1OCc1ccccc1Br', 'inhibition', 3.45),
  ('FC(F)(F)c1ccc(-c2nn3ncccc3c2-c2ccnc(Nc3ccc4c(c3)OCCO4)n2)cc1', 'inhibition', 4.31);

Now for a further molecule.
Give its inhibition value. Item: NS(=O)(=O)c1cccc(Nc2cc(-c3ccc(F)cc3)n[nH]2)c1 -0.78

----------
Target: Tyrosine-protein kinase receptor TYRO3 (Homo sapiens) (UniProt Q06418);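 also: reported percentages are averaged inhibition values of TYRO3 kinase activity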
Sequence (whole entry): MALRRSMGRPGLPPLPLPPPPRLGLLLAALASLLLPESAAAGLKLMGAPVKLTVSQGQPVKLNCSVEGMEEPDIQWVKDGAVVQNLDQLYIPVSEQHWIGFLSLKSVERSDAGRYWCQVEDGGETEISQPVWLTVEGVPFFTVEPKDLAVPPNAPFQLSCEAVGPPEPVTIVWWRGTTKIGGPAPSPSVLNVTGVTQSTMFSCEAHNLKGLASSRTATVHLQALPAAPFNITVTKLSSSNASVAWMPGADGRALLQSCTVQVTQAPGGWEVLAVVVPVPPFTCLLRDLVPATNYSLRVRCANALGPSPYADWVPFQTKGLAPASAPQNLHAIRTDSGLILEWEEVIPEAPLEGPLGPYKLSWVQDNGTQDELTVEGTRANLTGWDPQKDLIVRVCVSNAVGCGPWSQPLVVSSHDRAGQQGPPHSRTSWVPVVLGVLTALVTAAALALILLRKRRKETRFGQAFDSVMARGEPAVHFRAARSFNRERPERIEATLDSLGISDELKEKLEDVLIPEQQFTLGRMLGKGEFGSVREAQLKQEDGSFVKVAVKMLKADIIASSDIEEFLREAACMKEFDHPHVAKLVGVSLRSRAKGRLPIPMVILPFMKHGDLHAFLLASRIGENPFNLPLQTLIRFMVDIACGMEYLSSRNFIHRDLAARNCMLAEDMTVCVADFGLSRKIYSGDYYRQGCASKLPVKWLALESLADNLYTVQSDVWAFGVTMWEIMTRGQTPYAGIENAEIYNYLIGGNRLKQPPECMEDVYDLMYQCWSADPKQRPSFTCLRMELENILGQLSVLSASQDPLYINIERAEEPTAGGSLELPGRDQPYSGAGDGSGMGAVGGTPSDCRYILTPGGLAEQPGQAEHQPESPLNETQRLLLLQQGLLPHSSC
Conditions: at 0.1 µM
Overview of recorded inhibition for various compounds
State just the number; it will be interpreted in %.

Please review the following examples before continuing.
INSERT INTO assay_data (compound, readout_label, quantitative_result) VALUES
  ('N#Cc1cccc(Nc2nccc(-c3cnn4ncccc34)n2)c1', 'inhibition', 7.97),
  ('COc1cc2ncnc(Nc3ccc4c(cnn4Cc4ccccc4)c3)c2cc1OC', 'inhibition', 1.85),
  ('Cc1nc(-c2ccccc2)n2nc(NCCCN3CCOCC3)ncc12', 'inhibition', 0.92),
  ('[O-][S+]1CCN(Cc2ccc(-c3ccc4ncnc(Nc5ccc(OCc6ccccc6)c(Cl)c5)c4c3)o2)CC1', 'inhibition', 0.39),
  ('Cc1cc(-c2ccccn2)cc(C)c1/C=C/c1cncc(-c2nn[nH]n2)c1', 'inhibition', 0.01),
  ('CCn1c(-c2nonc2N)nc2c(C#CC(C)(C)O)nc(OCCNC)cc21', 'inhibition', 2.56);

Consider the compound CS(=O)(=O)CCNCc1nc(-c2ccc3ncnc(Nc4ccc(OCc5cccc(C(F)(F)F)c5)cc4)c3c2)cs1 and give its measured inhibition. 0.47

# query: inhibition of entry Cc1ccc(C(=O)NC2CC2)cc1-c1ccc2[nH]ncc2c1 -1.74

Need inhibition of CCCN1CCCC(c2ccc(Nc3nc(Nc4cc(F)ccc4C(N)=O)c4cc[nH]c4n3)c(OC)c2)C1 (configuration not stated) , thanks. 4.74

Please look up its inhibition: CCOc1nccc2c1nc(-c1nonc1N)n2CC 3.25

Which value of inhibition has been reported for Cc1cc(O)cc(C)c1/C=C/c1cncc(C(=O)N(C)C)c1 in the records? 3.45

Quick check: inhibition of COC(=O)Nc1nc2cc(Oc3ccc(NC(=O)Nc4cccc(Br)c4)cc3)ccc2[nH]1 ? 6.92
